# MEASURED TARGET: T1, human TL1A extracellular domain with N-terminal HIS and FLAG tag (human, UniProt O95150 72-251)
# T1 construct: the whole entry is named; also called TNFSF15
# T1 sequence: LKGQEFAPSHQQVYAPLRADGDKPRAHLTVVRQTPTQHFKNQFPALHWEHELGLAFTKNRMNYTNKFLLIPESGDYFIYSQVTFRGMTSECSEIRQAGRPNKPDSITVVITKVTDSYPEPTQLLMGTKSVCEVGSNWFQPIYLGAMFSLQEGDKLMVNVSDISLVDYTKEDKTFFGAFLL
# EXPERIMENT NOTES: SPR Run 7, antibody on Protein A, TL1A 5 ug/mL, timepoint 220
ASSAY ENDPOINT: TL1A Binding Level (Late) (RU)

BINDER	VALUE REPORTED
320-569 (antibody, human IgG1, name in Kabat numbering, V domains shown, full-length human IgG1, lambda) VH: QVQLVQSGAEVKKPGASVKVSCKASGYTFTSYDINWVRQAPGQGLEWMGWLNPNSGNTGDAQKFQGRVTMTADRSTSTAYMELSSLRSEDTAVYYCAREVPETAAFEYWGQGTLVTVSS VL: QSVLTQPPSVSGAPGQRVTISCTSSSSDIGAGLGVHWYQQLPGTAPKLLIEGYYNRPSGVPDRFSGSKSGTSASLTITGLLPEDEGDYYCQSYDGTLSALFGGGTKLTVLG	73
320-565 (antibody, human IgG1, name in Kabat numbering, V domains shown, full-length human IgG1, lambda) VH: QVQLVQSGAEVKKPGASVKVSCKASGYTFTSYDINWVRQAPGQGLEWMGWLNPNSGNTYYAQKFQGRVTMTADRSTSTAYMELSSLRSEDTAVYYCAREVPETAAFEYWGQGTLVTVSS VL: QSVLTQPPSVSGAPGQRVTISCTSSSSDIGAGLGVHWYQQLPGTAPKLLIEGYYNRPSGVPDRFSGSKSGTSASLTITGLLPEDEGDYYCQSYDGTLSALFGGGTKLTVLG	12
320-504 (antibody, human IgG1, name in Kabat numbering, V domains shown, full-length human IgG1, lambda) VH: QVQLVQSGAEVKKPGASVKVSCKASGYTFTSYDINWVRQAPGQGLEWMGWLYPNSGNTGYAQKFQGRVTMTADRSTSTAYMELSSLRSEDTAVYYCAREVPETAAFEYWGQGTLVTVSS VL: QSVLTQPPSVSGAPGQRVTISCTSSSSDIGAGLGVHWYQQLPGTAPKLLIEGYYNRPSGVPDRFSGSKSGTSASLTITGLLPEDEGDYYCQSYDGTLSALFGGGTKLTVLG	65

Each recorded value in this set is attributed to patent US20170081400A1.
